Recorded pIC50, one value per entry.
targetOrSystem: Transient receptor potential cation channel subfamily A member 1 (Homo sapiens, UniProt O75762)
Sequence (O75762 whole entry): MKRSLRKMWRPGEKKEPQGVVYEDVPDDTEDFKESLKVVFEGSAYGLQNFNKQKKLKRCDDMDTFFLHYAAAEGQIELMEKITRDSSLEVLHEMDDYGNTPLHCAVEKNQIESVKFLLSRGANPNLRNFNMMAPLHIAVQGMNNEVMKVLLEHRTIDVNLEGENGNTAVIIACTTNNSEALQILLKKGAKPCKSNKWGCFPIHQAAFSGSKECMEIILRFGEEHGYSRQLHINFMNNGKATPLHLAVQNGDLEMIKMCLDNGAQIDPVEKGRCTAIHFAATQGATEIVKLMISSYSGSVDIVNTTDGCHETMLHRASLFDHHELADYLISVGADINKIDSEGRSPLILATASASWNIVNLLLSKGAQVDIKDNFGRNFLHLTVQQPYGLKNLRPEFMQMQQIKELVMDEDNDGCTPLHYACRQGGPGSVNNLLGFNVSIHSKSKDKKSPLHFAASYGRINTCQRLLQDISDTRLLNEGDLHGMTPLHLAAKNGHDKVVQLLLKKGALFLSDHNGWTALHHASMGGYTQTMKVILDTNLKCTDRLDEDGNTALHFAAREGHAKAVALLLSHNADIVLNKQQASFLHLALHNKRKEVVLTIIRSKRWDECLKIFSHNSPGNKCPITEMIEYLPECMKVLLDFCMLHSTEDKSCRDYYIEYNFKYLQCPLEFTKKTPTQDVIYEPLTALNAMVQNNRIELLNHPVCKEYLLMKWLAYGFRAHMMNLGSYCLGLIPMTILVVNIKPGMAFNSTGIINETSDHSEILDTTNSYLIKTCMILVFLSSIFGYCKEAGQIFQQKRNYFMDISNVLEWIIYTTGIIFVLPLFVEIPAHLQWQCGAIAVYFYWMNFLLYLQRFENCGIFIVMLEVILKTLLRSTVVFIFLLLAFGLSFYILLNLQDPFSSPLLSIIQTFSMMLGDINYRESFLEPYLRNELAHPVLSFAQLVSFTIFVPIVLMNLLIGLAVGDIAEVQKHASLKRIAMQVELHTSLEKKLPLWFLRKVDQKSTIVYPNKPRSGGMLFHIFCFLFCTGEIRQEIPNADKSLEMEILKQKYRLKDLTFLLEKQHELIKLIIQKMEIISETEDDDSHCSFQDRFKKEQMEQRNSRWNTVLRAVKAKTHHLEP
assayOverview: Antagonist activity at human TRPA1 channel expressed in CHO cells assessed as inhibition of cinnamaldehyde-induced intracellular calcium influx
Type: functional, cell-based
pIC50: −log10 of the molar value.
readoutName: pIC50

{"columns": ["smilesEntry", "readoutName", "resultValue"],
 "data": [
  ["CCC(=N\\O)/C(C)=C/c1ccc(C)nc1", "pIC50", "< 4.00"],
  ["CCC(=N\\O)/C(C)=C/c1cnccc1C", "pIC50", "< 4.00"],
  ["CCC(=N\\O)/C(C)=C/c1ccc(C(F)(F)F)nc1", "pIC50", "< 4.00"]
]}
